Attribute: relative viability
- System: NCI-H460
- assay: relative viability (nuclei count vs DMSO), 5 days (fraction); higher = more cells survive
- condition_label: first compound 8 µM

molecule | relative viability
Nc1cccc2c1CN(C1CCC(=O)NC1=O)C2=O (stereo not given) [Lenalidomide] + COc1cc2c(Oc3ccc(NC(=O)C4(C(=O)Nc5ccc(F)cc5)CC4)cc3F)ccnc2cc1OCCCN1CCOCC1 [Foretinib] (partner 0.25 µM) | 1.07
Nc1cccc2c1CN(C1CCC(=O)NC1=O)C2=O (stereo not given) [Lenalidomide] + CC(=O)Nc1cccc(-n2c(=O)n(C3CC3)c(=O)c3c(Nc4ccc(I)cc4F)n(C)c(=O)c(C)c32)c1 [Trametinib] (partner 0.02 µM) | 0.19
Nc1cccc2c1CN(C1CCC(=O)NC1=O)C2=O (stereo not given) [Lenalidomide] + O=C(c1cc(Cc2n[nH]c(=O)c3ccccc23)ccc1F)N1CCN(C(=O)C2CC2)CC1 [Olaparib] (partner 8 µM) | 0.374
Nc1cccc2c1CN(C1CCC(=O)NC1=O)C2=O (stereo not given) [Lenalidomide] + CCNC(=O)c1noc(-c2cc(C(C)C)c(O)cc2O)c1-c1ccc(CN2CCOCC2)cc1 [Luminespib] (partner 0.01 µM) | 0.0323

Continue with the molecule presented below.
In one line, give reported relative viability of the entry Nc1cccc2c1CN(C1CCC(=O)NC1=O)C2=O (stereo not given) [Lenalidomide] + N=C(N)NC(=N)NCCc1ccccc1 [Phenformin] (partner 250 µM) .
0.563

====

- Test system: NCI-H2170
- assay: relative viability (nuclei count vs DMSO), 5 days (fraction); higher = more cells survive
- condition_label: first compound 0.006325 µM
readout_label: relative viability
Lab note: jot the number down without any unit.

In one line, give reported relative viability of the entry CCNC(=O)c1noc(-c2cc(C(C)C)c(O)cc2O)c1-c1ccc(CN2CCOCC2)cc1 [Luminespib] + Nc1ncn([C@H]2C[C@H](O)[C@@H](CO)O2)c(=O)n1 [Decitabine] (partner 2 µM) .
0.456

====

- Test system: NCI-H661
- assay: relative viability (nuclei count vs DMSO), 5 days (fraction); higher = more cells survive
- condition_label: first compound 0.06325 µM
readout_label: relative viability

molecule | target_system | relative viability
CCNC(=O)c1noc(-c2cc(C(C)C)c(O)cc2O)c1-c1ccc(CN2CCOCC2)cc1 [Luminespib] + COc1cc2c(Oc3ccc(NC(=O)C4(C(=O)Nc5ccc(F)cc5)CC4)cc3F)ccnc2cc1OCCCN1CCOCC1 [Foretinib] (partner 0.25 µM) | NCI-H661 | 0.597
CCNC(=O)c1noc(-c2cc(C(C)C)c(O)cc2O)c1-c1ccc(CN2CCOCC2)cc1 [Luminespib] + C[C@]1(O)C[C@@H](c2nc(-c3ccc4ccc(-c5ccccc5)nc4c3)c3c(N)nccn32)C1 [Linsitinib] (partner 1 µM) | NCI-H661 | 0.395
CCNC(=O)c1noc(-c2cc(C(C)C)c(O)cc2O)c1-c1ccc(CN2CCOCC2)cc1 [Luminespib] + CS(=O)(=O)N1CCN(Cc2cc3nc(-c4cccc5[nH]ncc45)nc(N4CCOCC4)c3s2)CC1 [Pictilisib] (partner 1 µM) | NCI-H661 | 0.276

In one line, give reported relative viability of the entry CCNC(=O)c1noc(-c2cc(C(C)C)c(O)cc2O)c1-c1ccc(CN2CCOCC2)cc1 [Luminespib] + Cc1nc(Nc2ncc(C(=O)Nc3c(C)cccc3Cl)s2)cc(N2CCN(CCO)CC2)n1 [Dasatinib] (partner 0.075 µM) .
0.286

====

- Tested on: NCI-H650
- assay: relative viability (nuclei count vs DMSO), 5 days (fraction); higher = more cells survive
- condition_label: first compound 0.1 µM
Attribute: relative viability
Lab note: jot the number down without any unit.

Answered cases to consult:
compound | relative viability
Cc1cn(-c2cc(NC(=O)c3ccc(C)c(Nc4nccc(-c5cccnc5)n4)c3)cc(C(F)(F)F)c2)cn1 [Nilotinib] + Cc1nc(NC(=O)N2CCC[C@H]2C(N)=O)sc1-c1ccnc(C(C)(C)C(F)(F)F)c1 [Alpelisib] (partner 2 µM) | 1.23
Cc1cn(-c2cc(NC(=O)c3ccc(C)c(Nc4nccc(-c5cccnc5)n4)c3)cc(C(F)(F)F)c2)cn1 [Nilotinib] + Cc1nc(Nc2ncc(C(=O)Nc3c(C)cccc3Cl)s2)cc(N2CCN(CCO)CC2)n1 [Dasatinib] (partner 0.075 µM) | 0.379
Cc1cn(-c2cc(NC(=O)c3ccc(C)c(Nc4nccc(-c5cccnc5)n4)c3)cc(C(F)(F)F)c2)cn1 [Nilotinib] + CCNC(=O)c1noc(-c2cc(C(C)C)c(O)cc2O)c1-c1ccc(CN2CCOCC2)cc1 [Luminespib] (partner 0.01 µM) | 0.79

Continue with the compound presented below.
In one line, give reported relative viability of the entry Cc1cn(-c2cc(NC(=O)c3ccc(C)c(Nc4nccc(-c5cccnc5)n4)c3)cc(C(F)(F)F)c2)cn1 [Nilotinib] + N=C(N)NC(=N)NCCc1ccccc1 [Phenformin] (partner 250 µM) .
0.397

====

- Tested on: NCI-H727
- assay: relative viability (nuclei count vs DMSO), 5 days (fraction); higher = more cells survive
- condition_label: first compound 0.06325 µM
Attribute: relative viability
Lab note: jot the number down without any unit.

Answered cases to consult:
compound | experimental_result
CCNC(=O)c1noc(-c2cc(C(C)C)c(O)cc2O)c1-c1ccc(CN2CCOCC2)cc1 [Luminespib] + C[C@]1(O)C[C@@H](c2nc(-c3ccc4ccc(-c5ccccc5)nc4c3)c3c(N)nccn32)C1 [Linsitinib] (partner 1 µM) | 0.221
CCNC(=O)c1noc(-c2cc(C(C)C)c(O)cc2O)c1-c1ccc(CN2CCOCC2)cc1 [Luminespib] + CS(=O)(=O)CCNCc1ccc(-c2ccc3ncnc(Nc4ccc(OCc5cccc(F)c5)c(Cl)c4)c3c2)o1 [Lapatinib] (partner 2 µM) | 0.227

In one line, give reported relative viability of the entry CCNC(=O)c1noc(-c2cc(C(C)C)c(O)cc2O)c1-c1ccc(CN2CCOCC2)cc1 [Luminespib] + NC(=O)Nc1cc(-c2cccc(F)c2)sc1C(=O)N[C@H]1CCCNC1 [AZD7762] (partner 0.2 µM) .
0.36

In one line, give reported relative viability of the entry CCNC(=O)c1noc(-c2cc(C(C)C)c(O)cc2O)c1-c1ccc(CN2CCOCC2)cc1 [Luminespib] + Cc1nc(Nc2ncc(C(=O)Nc3c(C)cccc3Cl)s2)cc(N2CCN(CCO)CC2)n1 [Dasatinib] (partner 0.075 µM) .
0.278

In one line, give reported relative viability of the entry CCNC(=O)c1noc(-c2cc(C(C)C)c(O)cc2O)c1-c1ccc(CN2CCOCC2)cc1 [Luminespib] + COc1cc2c(Oc3ccc(NC(=O)C4(C(=O)Nc5ccc(F)cc5)CC4)cc3F)ccnc2cc1OCCCN1CCOCC1 [Foretinib] (partner 0.25 µM) .
0.219

In one line, give reported relative viability of the entry CCNC(=O)c1noc(-c2cc(C(C)C)c(O)cc2O)c1-c1ccc(CN2CCOCC2)cc1 [Luminespib] + CC(C)C[C@H](NC(=O)[C@H](Cc1ccccc1)NC(=O)c1cnccn1)B(O)O [Bortezomib] (partner 0.002 µM) .
0.23

====

- Test system: NCI-H460
- assay: relative viability (nuclei count vs DMSO), 5 days (fraction); higher = more cells survive
- condition_label: first compound 0.01 µM
Mark 1 for relative viability under 0.7, 0 if at or over.

compound | category
Cc1cn(-c2cc(NC(=O)c3ccc(C)c(Nc4nccc(-c5cccnc5)n4)c3)cc(C(F)(F)F)c2)cn1 [Nilotinib] + CCNC(=O)c1noc(-c2cc(C(C)C)c(O)cc2O)c1-c1ccc(CN2CCOCC2)cc1 [Luminespib] (partner 0.01 µM) | 1
Cc1cn(-c2cc(NC(=O)c3ccc(C)c(Nc4nccc(-c5cccnc5)n4)c3)cc(C(F)(F)F)c2)cn1 [Nilotinib] + CC1(C)CCC(c2ccc(Cl)cc2)=C(CN2CCN(c3ccc(C(=O)NS(=O)(=O)c4ccc(N[C@H](CCN5CCOCC5)CSc5ccccc5)c(S(=O)(=O)C(F)(F)F)c4)cc3)CC2)C1 [Navitoclax] (partner 0.5 µM) | 0
Cc1cn(-c2cc(NC(=O)c3ccc(C)c(Nc4nccc(-c5cccnc5)n4)c3)cc(C(F)(F)F)c2)cn1 [Nilotinib] + O=C(CCCCCCC(=O)Nc1ccccc1)NO [Vorinostat] (partner 1 µM) | 0
Cc1cn(-c2cc(NC(=O)c3ccc(C)c(Nc4nccc(-c5cccnc5)n4)c3)cc(C(F)(F)F)c2)cn1 [Nilotinib] + C[C@@H](Oc1cc(-c2cnn(C3CCNCC3)c2)cnc1N)c1c(Cl)ccc(F)c1Cl [Crizotinib] (partner 1 µM) | 0

relative viability strictly < 0.7 for this compound? Cc1cn(-c2cc(NC(=O)c3ccc(C)c(Nc4nccc(-c5cccnc5)n4)c3)cc(C(F)(F)F)c2)cn1 [Nilotinib] + Cc1nc(Nc2ncc(C(=O)Nc3c(C)cccc3Cl)s2)cc(N2CCN(CCO)CC2)n1 [Dasatinib] (partner 0.075 µM)
1
